tested on: Influenza B (B/Ned/537/05); experiment: Influenza CPE reduction in MDCK cells, MTS assay, influenza B; type: cell-based; details: Influenza B virus, inhibition of virus-induced CPE by MTS assay, read-out: Antiviral EC50 Influenza B
ASSAY ENDPOINT: pEC50
In plain terms, pEC50 is the concentration in mol/L turned into minus its base-10 logarithm.

MOLECULE	ASSAY SYSTEM	pEC50
NC(=O)c1ncn([C@@H]2O[C@H](CO)[C@@H](O)[C@H]2O)n1 [Ribavirin]	Influenza B (B/Ned/537/05)	5.14

Switching to the query record.
Looking for the measured pEC50 of CC(=O)N[C@H]1[C@H]([C@H](O)[C@H](O)CO)OC(C(=O)O)=C[C@@H]1N=C(N)N [Zanamivir, reference compound] , can you help?
5.35

====

experiment: in vitro; details: human
ASSAY ENDPOINT: CC50

Example cases with answers are listed next.
>>> df
                                   molecule  readout_value
0  NC(=O)c1ncn([C@@H]2O[C@H](CO)[C@@H](O)[C@H]2O)n1 [Ribavirin]       > 250 µM
1  Nc1nc(O)c2ncn(COC(CO)CO)c2n1 [Ganciclovir]       > 100 µM
2  Nc1ccn(C[C@@H](CO)OCP(=O)(O)O)c(=O)n1 [Cidofovir]       > 250 µM
3  COc1c(C)c2c(c(O)c1C/C=C(\C)CCC(=O)O)C(=O)OC2 [Mycophenolic acid]       > 100 µM

Looking for the measured CC50 of Nc1nc2c(ncn2COCCO)c(=O)[nH]1 [Aciclovir] , can you help?
> 250 µM

====

Listed next: entries and their corresponding pEC50.
system: Influenza A/H3N2 (A/Victoria/361/11); experiment: Influenza CPE reduction in MDCK cells, MTS assay, A/H3N2; format: cell-based; conditions: Influenza A virus, H3N2; MDCK cells; A/Victoria/361/11; inhibition of virus-induced CPE by MTS assay; read-out: Antiviral EC50 Influenza A/H3N2
In plain terms, pEC50 is the concentration in mol/L turned into minus its base-10 logarithm.

MOLECULE	ASSAY SYSTEM	pEC50
CCCCCCS(=O)(=O)NCCNC(=O)[C@H]1NC(=O)[C@H]2NC(=O)[C@H](NC(=O)[C@@H]3NC(=O)[C@H](CC(N)=O)NC(=O)[C@H](N)[C@H](O)c4ccc(c(Cl)c4)Oc4cc3cc(c4O)Oc3ccc(cc3Cl)[C@H]2O)c2ccc(O)c(c2)-c2c(O)cc(O)cc21 [Compound 13]	Influenza A/H3N2 (A/Victoria/361/11)	4.85

Switching to the query record.
Looking for the measured pEC50 of CC(=O)N[C@H]1[C@H]([C@H](O)[C@H](O)CO)OC(C(=O)O)=C[C@@H]1N=C(N)N [Zanamivir, reference compound] , can you help?
5.05

====

tested on: Influenza A/H1N1 (A/Ned/378/05); assay: Influenza CPE reduction in MDCK cells, MTS assay, A/H1N1; format: cell-based; conditions: Influenza A virus, H1N1; MDCK cells; A/Ned/378/05; inhibition of virus-induced CPE by MTS assay; read-out: Antiviral EC50 Influenza A/H1N1
ASSAY ENDPOINT: EC50 (µM)
The reply should be a number in µM, with the unit left off.

MOLECULE	EC50 / µM
CC(=O)N[C@H]1[C@H]([C@H](O)[C@H](O)CO)OC(C(=O)O)=C[C@@H]1N=C(N)N [Zanamivir, reference compound]	0.4

Switching to the query record.
Looking for the measured EC50 of CCCCCCS(=O)(=O)NCCNC(=O)[C@H]1NC(=O)[C@H]2NC(=O)[C@H](NC(=O)[C@@H]3NC(=O)[C@H](CC(N)=O)NC(=O)[C@H](N)[C@H](O)c4ccc(c(Cl)c4)Oc4cc3cc(c4O)Oc3ccc(cc3Cl)[C@H]2O)c2ccc(O)c(c2)-c2c(O)cc(O)cc21 , can you help?
34
